# assayed target: P-gp (Homo sapiens, UniProt P08183)
# Sequence (P08183 whole entry): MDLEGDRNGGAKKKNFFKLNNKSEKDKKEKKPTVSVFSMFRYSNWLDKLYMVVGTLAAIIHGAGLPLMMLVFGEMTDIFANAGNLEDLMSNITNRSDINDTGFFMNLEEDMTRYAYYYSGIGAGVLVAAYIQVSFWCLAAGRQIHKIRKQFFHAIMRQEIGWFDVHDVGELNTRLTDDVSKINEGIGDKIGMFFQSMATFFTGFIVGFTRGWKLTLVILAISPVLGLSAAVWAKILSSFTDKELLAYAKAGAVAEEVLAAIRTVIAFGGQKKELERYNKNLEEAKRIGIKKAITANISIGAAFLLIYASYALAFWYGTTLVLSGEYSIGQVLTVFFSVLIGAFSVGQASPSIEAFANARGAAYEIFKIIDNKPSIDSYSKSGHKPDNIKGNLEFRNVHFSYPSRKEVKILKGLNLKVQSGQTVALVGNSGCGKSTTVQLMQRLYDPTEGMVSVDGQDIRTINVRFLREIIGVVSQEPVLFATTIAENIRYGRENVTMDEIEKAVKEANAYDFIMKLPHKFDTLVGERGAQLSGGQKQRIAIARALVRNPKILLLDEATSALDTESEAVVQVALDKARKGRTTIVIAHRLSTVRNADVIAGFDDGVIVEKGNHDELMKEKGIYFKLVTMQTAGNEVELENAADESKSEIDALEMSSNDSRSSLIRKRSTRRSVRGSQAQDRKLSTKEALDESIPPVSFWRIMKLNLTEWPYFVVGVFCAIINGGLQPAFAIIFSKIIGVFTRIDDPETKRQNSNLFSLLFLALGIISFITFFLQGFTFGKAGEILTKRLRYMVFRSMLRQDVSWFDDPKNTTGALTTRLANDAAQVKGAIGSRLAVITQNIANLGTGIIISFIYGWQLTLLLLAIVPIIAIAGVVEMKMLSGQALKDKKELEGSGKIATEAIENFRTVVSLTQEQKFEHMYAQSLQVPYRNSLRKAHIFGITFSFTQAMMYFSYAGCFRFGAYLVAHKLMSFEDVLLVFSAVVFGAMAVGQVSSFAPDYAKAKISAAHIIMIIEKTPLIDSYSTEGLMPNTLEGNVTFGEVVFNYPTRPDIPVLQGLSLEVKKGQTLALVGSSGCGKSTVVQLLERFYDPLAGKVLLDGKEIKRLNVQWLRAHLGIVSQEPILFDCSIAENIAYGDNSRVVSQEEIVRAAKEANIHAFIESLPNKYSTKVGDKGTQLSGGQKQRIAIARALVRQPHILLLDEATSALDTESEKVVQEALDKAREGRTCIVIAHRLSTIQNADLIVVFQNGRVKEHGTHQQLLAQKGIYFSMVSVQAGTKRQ
# protocol text: SPR affinity to P-gp in SMALP-MCF-7/ADR liposomes
# Format: binding
measured quantity: Kd

Entry N[C@H]1[C@H](O[C@H]2[C@H](O)[C@@H](N)[C@H](O[C@H]3[C@H](O)[C@@H](N)C(O)O[C@@H]3CO)O[C@@H]2CO)O[C@H](CO)[C@@H](O)[C@@H]1O (stereo partly shown) , Kd reported as 276 µM
